What LD50 was measured for each of the following?
test system: Drosophila melanogaster; experiment: Adulticidal activity against adult Drosophila melanogaster (males/females 1:1 ratio) assessed as mortality measured after 3 hr; type: functional
Give a bare numeral; the unit µg is implied.

Measured LD50 of C=C(C)[C@H]1Cc2c(ccc3c2O[C@@H]2COc4cc(OC)c(OC)cc4[C@@H]2C3=O)O1 : 3.68

LD50 measured on COc1ccc2c(c1OC)CN1CCc3cc4c(cc3[C@@H]1C2)OCO4 = 2.5

get_value(item= C[C@@H]1CC[C@H]2[C@H](C)CC[C@@H](c3ccoc3)N2C1 [(-)-7-EPI-DEOXYNUPHARIDINE] , readout=LD50) returns 0.9

So for C[C@H]1CC=CC(=O)O1 [(+)-(6S)-PARASORBIC ACID] , the logged LD50 turned out to be 1.44
